# assay-details: Cytotoxicity against human SKOV3 cells assessed as reduction in cell viability by MTT assay
# Type: functional, cell-based
# setup-conditions: SK-OV-3
IC50 values for the compounds below.
All answers are understood in µM, so give the number only.

Known IC50 results, listed for orientation:
CCCCCC(=O)Nc1cc2c(cc1F)c(=O)c(C(=O)OCC)cn2CC: 8.6
CCCCCCCCCCCCCCCC(=O)Nc1cc2c(cc1F)c(=O)c(C(=O)OCC)cn2CC: 17.8
C=CCCCCCCCCC(=O)Nc1cc2c(cc1F)c(=O)c(C(=O)OCC)cn2CC: 91.2
COc1cccc2c1C(=O)c1c(O)c3c(c(O)c1C2=O)C[C@@](O)(C(=O)CO)C[C@@H]3O[C@H]1C[C@H](N)[C@H](O)[C@H](C)O1: 0.7
CCCCCCCCCCCCCCCCCC(=O)Nc1cc2c(cc1F)c(=O)c(C(=O)OCC)cn2CC: 35.2
CCCCCCCC(=O)Nc1cc2c(cc1F)c(=O)c(C(=O)OCC)cn2CC: 8.1
CCCCCCCCCCCCCC(=O)Nc1cc2c(cc1F)c(=O)c(C(=O)OCC)cn2CC: 8.2

# context switch: different compound, same IC50
Query :: Suppose we examine the compound "CCCCCCCCCCCC(=O)Nc1cc2c(cc1F)c(=O)c(C(=O)OCC)cn2CC" ; what IC50 value has been reported?
Result :: 9.8
